assay: Farnesol concentration in brain and plasma of farnesol diet fed mice by mass spectrometry; format: in vivo; details: mouse, brain, oral, 0.5 % w/w in diet, 0.5% w/w trans-farnesol in AIN-76A diet
measured endpoint: concentration at 7 days (ng/g)
// units = ng/g; emit number, no label

[in] Look up concentration at 7 days: "CC(C)=CCC/C(C)=C/CC/C(C)=C/CO"
[out] 155

====

assay: Farnesol concentration in brain and plasma of farnesol diet fed mice by mass spectrometry; format: in vivo; conditions: mouse, plasma, oral, 0.5 % w/w in diet, 0.5% w/w trans-farnesol in AIN-76A diet, non-detectable on control diet
measured endpoint: concentration at 7 days (ng/mL)
Write the value in ng/mL as a bare number.

[in] Find the recorded concentration at 7 days belonging to CC(C)=CCC/C(C)=C/CC/C(C)=C/CO [farnesol] and report it.
[out] 113
